Target: T1, S. aureus sortase A (S. aureus), Q2FV99
T1 chain: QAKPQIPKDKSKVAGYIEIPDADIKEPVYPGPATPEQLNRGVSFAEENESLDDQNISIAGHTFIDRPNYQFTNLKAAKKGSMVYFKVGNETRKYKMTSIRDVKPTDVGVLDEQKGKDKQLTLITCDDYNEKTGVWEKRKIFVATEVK
Assay: cell-based or functional assay
measurementKind: activity for catalyst concentration of 1 µM

[
  {
    "binder": "GGHLPETG (modifications not checked) [Cu-GGHLPETG (SEQ ID NO: 103)]",
    "readoutValue": 0.017
  },
  {
    "binder": "GGHLPET (modifications not checked) [Cu-GGHLPET (SEQ ID NO: 102)]",
    "readoutValue": 0.009
  },
  {
    "binder": "GGHGLPET (modifications not checked) [Cu-GGHGLPET (SEQ ID NO: 104)]",
    "readoutValue": 0.027
  },
  {
    "binder": "GGHGLPETG (modifications not checked) [Cu-… (SEQ ID NO: 105)]",
    "readoutValue": 0.012
  }
]

Numbers sourced from patent US8859492.
